Each recorded value in this set is attributed to patent US5933819A.

Would you mind telling me the reported Kd of each entry?
Target: K^b (Mus musculus, UniProt P01901)
Construct: Soluble K^b was purified from transfected Drosophila cells; made in house; host or cells: transfected Drosophila cells
Sequence (P01901 22-305 limits assumed): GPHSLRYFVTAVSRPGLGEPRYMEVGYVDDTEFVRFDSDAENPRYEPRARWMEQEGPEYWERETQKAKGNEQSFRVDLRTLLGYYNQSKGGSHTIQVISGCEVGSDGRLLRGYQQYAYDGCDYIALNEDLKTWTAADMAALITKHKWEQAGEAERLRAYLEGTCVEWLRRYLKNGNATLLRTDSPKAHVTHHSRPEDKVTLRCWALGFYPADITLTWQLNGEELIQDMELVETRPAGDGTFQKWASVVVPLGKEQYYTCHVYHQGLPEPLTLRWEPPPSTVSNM
Sequence (P01887 21-119 partner): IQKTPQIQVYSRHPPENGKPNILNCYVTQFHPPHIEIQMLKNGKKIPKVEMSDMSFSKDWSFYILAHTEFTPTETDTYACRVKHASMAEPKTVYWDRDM
Assay: biochemical
Assay type: binding
Where no end group is shown, it is not given here.

Some entries whose results are on file:
- sequence_text: "DVYSFSLA [Peptide 7]"
  measurement_target: "K^b (Mus musculus, UniProt P01901)"
  Kd: "0.07 µM"
- sequence_text: "DHPFLFCI [Peptide 10]"
  measurement_target: "K^b (Mus musculus, UniProt P01901)"
  Kd: "47 µM"
- sequence_text: "RGDKLPGFG [Peptide 6]"
  measurement_target: "K^b (Mus musculus, UniProt P01901)"
  Kd: "550 µM"

Provide the reported Kd of each entry below, same order.
1. AEERYPIL [Peptide 3]
2. SALAMVYL [Peptide 2]
3. NAIVFKGL [Peptide 4]
4. KVVRFDKL [Peptide 5]

67 µM
0.0071 µM
0.013 µM
0.026 µM

Provide the reported Kd of each entry below, same order.
1. GTMSMLVL [Peptide 8]
2. ASEKMKIL [Peptide 9]

1. 1.2 µM
2. 550 µM

----------
Would you mind telling me the reported Kd of each entry?
Target: K^b (Mus musculus, UniProt P01901)
Construct: Soluble K^b was purified from transfected Drosophila cells; made in house; host or cells: transfected Drosophila cells
Test: biochemical
Type: binding
Conditions: read-out: KD (dissociation constant)
Where no end group is shown, it is not given here.
Give bare numbers, in nM.

- sequence_text: "ENIFYCPI [Peptide 11]"
  measurement_target: "K^b (Mus musculus, UniProt P01901)"
  Kd (nM): 94

Kd lookup needed for RGYVYQGL [VSV8, reference compound] , thanks.
4.1

----------
Target: K^b on the surface of K^b transfected drosophila cells (Mus musculus, UniProt P01901)
Construct: expressed in transfected cells; host or cells: Drosophila cells transfected with K^b
Sequence (P01901 22-369, one chain of several): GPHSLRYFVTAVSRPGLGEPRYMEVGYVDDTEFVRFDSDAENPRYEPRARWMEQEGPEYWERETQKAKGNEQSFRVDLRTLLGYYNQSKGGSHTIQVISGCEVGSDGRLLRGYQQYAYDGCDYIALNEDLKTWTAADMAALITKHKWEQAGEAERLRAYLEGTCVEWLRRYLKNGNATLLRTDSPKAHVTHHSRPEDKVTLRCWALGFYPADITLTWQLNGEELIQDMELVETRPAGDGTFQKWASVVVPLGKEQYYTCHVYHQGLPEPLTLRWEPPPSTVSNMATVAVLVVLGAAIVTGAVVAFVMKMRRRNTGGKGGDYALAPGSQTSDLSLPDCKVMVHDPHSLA
Assay: FACS analysis of stabilization of cell surface K^b by peptides
Type: cell-based
Settings: 18-hour incubation with peptide, 23° C., antibody Y3, median fluorescence normalized to SIINFEKL
Where no end group is shown, it is not given here.
Would you mind telling me the reported FACS Analysis % SIINFEKL (relative amount of K^b on cell surface) of each entry?
State the result as a value with its unit after it.

Some entries whose results are on file:
- sequence_text: "ASEKMKIL [Peptide 9]"
  result: "4 % SIINFEKL"
- sequence_text: "DVYSFSLA [Peptide 7]"
  result: "65 % SIINFEKL"
- sequence_text: "SALAMVYL [Peptide 2]"
  result: "100 % SIINFEKL"

Provide the reported FACS Analysis % SIINFEKL (relative amount of K^b on cell surface) of each entry below, same order.
1. DHPFLFCI [Peptide 10]
2. GTMSMLVL [Peptide 8]
3. KVVRFDKL [Peptide 5]
4. NAIVFKGL [Peptide 4]
5. AEERYPIL [Peptide 3]
6. RGDKLPGFG [Peptide 6]

["38 % SIINFEKL", "0 % SIINFEKL", "94 % SIINFEKL", "76 % SIINFEKL", "42 % SIINFEKL", "30 % SIINFEKL"]
